# study.system: PI 3-kinase gamma (Homo sapiens, UniProt P48736)
# Sequence (P48736 whole entry): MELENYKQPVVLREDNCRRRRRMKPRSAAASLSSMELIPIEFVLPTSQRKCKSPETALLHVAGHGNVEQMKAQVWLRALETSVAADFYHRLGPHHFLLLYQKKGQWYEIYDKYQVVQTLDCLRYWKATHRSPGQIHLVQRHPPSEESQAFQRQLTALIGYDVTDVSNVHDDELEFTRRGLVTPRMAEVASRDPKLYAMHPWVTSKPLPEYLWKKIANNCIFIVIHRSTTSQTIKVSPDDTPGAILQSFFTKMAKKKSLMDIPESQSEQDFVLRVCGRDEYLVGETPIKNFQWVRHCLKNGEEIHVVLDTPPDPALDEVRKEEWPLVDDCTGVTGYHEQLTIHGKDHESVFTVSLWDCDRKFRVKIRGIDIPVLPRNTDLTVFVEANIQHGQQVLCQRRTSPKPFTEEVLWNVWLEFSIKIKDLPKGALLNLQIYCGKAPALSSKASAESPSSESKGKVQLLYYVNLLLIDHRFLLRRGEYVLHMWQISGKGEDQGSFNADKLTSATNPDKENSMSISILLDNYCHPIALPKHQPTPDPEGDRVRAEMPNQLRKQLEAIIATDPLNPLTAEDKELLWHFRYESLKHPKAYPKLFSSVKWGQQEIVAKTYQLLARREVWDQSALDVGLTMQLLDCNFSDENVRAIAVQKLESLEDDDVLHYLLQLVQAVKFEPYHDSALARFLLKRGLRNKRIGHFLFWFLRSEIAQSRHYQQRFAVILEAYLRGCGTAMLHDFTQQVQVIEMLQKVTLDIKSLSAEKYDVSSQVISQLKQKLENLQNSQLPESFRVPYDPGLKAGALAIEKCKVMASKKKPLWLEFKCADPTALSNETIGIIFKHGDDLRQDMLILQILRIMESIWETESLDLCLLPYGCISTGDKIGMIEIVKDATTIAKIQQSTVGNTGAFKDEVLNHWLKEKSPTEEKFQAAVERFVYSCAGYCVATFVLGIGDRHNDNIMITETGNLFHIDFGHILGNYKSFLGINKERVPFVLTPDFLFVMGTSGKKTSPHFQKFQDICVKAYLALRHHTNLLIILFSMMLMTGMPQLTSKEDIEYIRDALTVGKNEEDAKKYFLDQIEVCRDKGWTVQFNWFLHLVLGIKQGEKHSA
# protocol: TR-FRET Adapta assay, assay E
# Format: biochemical
# experimental.parameters: read-out: Assay E PI3Kγ IC50
Lab note: anything with IC50 below 30 nM is marked TRUE; values at 30 nM or higher are marked FALSE.

Use these answered entries as a reference point.
Cc1ccc(S(=O)(=O)N[C@H]2CC[C@@](C)(O)CC2)cc1-c1cnc(N)c(-n2cncn2)n1 [Example 69b]; FALSE
Cc1ccc(S(=O)(=O)N[C@H]2CC[C@H](O)CC2)cc1-c1cnc(N)c(-n2cncn2)n1; TRUE
Cc1cc(F)c(S(=O)(=O)NCCCO)cc1-c1cnc(N)c(-c2cnn(C)c2)n1; FALSE
COc1nc(-c2nc(-c3cc(S(=O)(=O)NCCC(C)(C)O)ccc3C)cnc2N)cs1; TRUE
Cc1cc(-c2nc(-c3cc(S(=O)(=O)NCC4(C(N)=O)CCOCC4)ccc3C)cnc2N)ccn1; FALSE
Cc1cc(-c2nc(-c3cc(S(=O)(=O)N4CC[C@@H](N)C4)ccc3C)cnc2N)ccn1; FALSE
Cc1ccc(S(=O)(=O)N[C@H]2C[C@@H](O)C2)cc1-c1cnc(N)c(-n2cncn2)n1 [Example 71b]; TRUE
Cc1ccc(S(=O)(=O)NCC(C)(C)O)cc1-c1cnc(N)c(-n2cnc(C3CC3)n2)n1; TRUE
COc1ccncc1-c1nc(-c2cc(S(=O)(=O)NCCC(C)(C)O)ccc2C)cnc1N; FALSE
Cc1ccc(S(=O)(=O)N[C@H]2CC[C@H](O)CC2)cc1-c1cnc(N)c(-c2nc(C3CC3)no2)n1; TRUE

Here is the next item to consider.
Would you kindly verify if IC50 of `Cc1cc(-c2nc(-c3cc(S(=O)(=O)NC[C@H](C)O)ccc3C)cnc2N)ccn1` is strictly less than 30 nM? FALSE

// provenance: patent US10004732B2
